- Test system: HCC 2998
- Method notes: NCI tumour cell line growth inhibition, 48 h
Active and inactive are the calls of the source. Rule as the data show it: active = GI50 up to about 1.1 µM and inactive = higher.
Reply using exactly one outcome from active, inactive

The following molecules have reported results that may help.
{"columns": ["Molecule", "Assigned label"],
 "data": [
  ["O=C(NNC(=O)c1ccccc1SSc1ccccc1C(=O)NNC(=O)c1ccccc1S)c1ccccc1S", "inactive"],
  ["CCCCCC[C@H]([C@H](C)O)n1cnc2c(N)ncnc21", "inactive"],
  ["N#Cc1cc2c(cc1C#N)SCCSCCCSCCS2", "inactive"],
  ["CC1CC2C3CCC4=CC(=O)C=CC4(C)C3(F)C(O)CC2(C)C1(O)C(=O)CO.Cc1cc(NS(=O)(=O)c2ccc(/N=N\\c3cc(/N=N/c4ccc(S(=O)(=O)Nc5cc(C)nc(C)n5)cc4)c(OC(=O)C(Cl)Cl)c4cccc(NC(=O)C(Cl)Cl)c34)cc2)nc(C)n1", "inactive"],
  ["CC(=O)c1c2c(cc3c1CC1(Cc4cc5c(cc4C1)C(=O)CCC5)C3)CCCC2 (configuration not stated)", "inactive"]
]}

Please state the recorded outcome for this molecule: O=c1[nH]ccc(CNC23CC4CC(CC(C4)C2)C3)c1O inactive

Please state the recorded outcome for this molecule: CCc1nc(N)nc(N)c1-c1ccc(Cl)c(N=[N+]=[N-])c1 inactive

Please state the recorded outcome for this molecule: NNC(=O)C(=O)NN=C(C(Cl)(Cl)CO)C(Cl)(Cl)CO inactive

Please state the recorded outcome for this molecule: O=C1C=CC2(O[C@H](C3CCCCC3)[C@@H](C3CCCCC3)O2)C(SC(=O)c2ccccc2)C1 (some centres not stated) inactive

Please state the recorded outcome for this molecule: Cc1cc(=O)n2c3c(c4c(cc13)c(CN(C)C)cc(=O)n4C)OC2 inactive

Please state the recorded outcome for this molecule: CCC(=O)O[C@H]1CC[C@H]2[C@@H]3CCC4=C/C(=N/OC(=O)c5cccc6cc7ccccc7nc56)CC[C@]4(C)[C@H]3CC[C@]12C inactive

###

- Test system: SF-539
- Method notes: NCI tumour cell line growth inhibition, 48 h
Calls of active or inactive are those of the source. No stated cut-off is given here; in the data, active = GI50 up to about 1.1 µM and inactive = higher. Where a SMILES comes first, the peptide text is derived from it. [ ]: non-standard residue; d: D form. The star is where a group is joined. ξ: configuration not given here. ξNMe2Val = CC(C)C(C(=O)*)N(C)C; NMeV = CN[CH](C(=O)O)C(C)C; NHBn = c1ccc(CN*)cc1
Reply using exactly one outcome from active, inactive

The following compounds have reported results that may help.
{"columns": ["Compound", "Measured target", "Assigned label"],
 "data": [
  ["O=C(O)/C(Cl)=C(\\Cl)C(=O)Nc1ccc(Cl)c(Cl)c1Cl", "SF-539", "inactive"],
  ["CCOC(=O)c1cc(Br)c(-c2cc(C)no2)[nH]1", "SF-539", "inactive"],
  ["COc1ccc(-c2c(C#N)c(N)nc(Sc3ccccc3N)c2C#N)cc1", "SF-539", "inactive"],
  ["CC1=C2C3OC(=O)C(C)C3CCC2(C)C=C/C1=N\\c1ccccc1 (stereo not given)", "SF-539", "inactive"],
  ["O=C(NCCCl)SCCO", "SF-539", "inactive"],
  ["COc1cc2c(c(OC)c1OC)C(=O)c1c(O)cc(C)c(OC)c1C2=O", "SF-539", "inactive"],
  ["CC(=O)NNc1nc(C)c(C(=O)NNC(=O)C(=O)Nc2ccc([N+](=O)[O-])cc2C#N)s1", "SF-539", "inactive"],
  ["O=C1c2ccccc2N(O)C1(c1ccccc1)C1CCCC=C1N1CCOCC1 (stereo not given)", "SF-539", "inactive"]
]}

Please state the recorded outcome for this compound: C[C@]12Cc3cn[nH]c3C(=O)C1CC[C@@H]1C2CC[C@@]2(C)C1CC[C@@H]2O (stereo not given in full) inactive

Please state the recorded outcome for this compound: Clc1cc(OCC23CC4CC(CC(C4)C2)C3)nc(OCC23CC4CC(CC(C4)C2)C3)n1 inactive

Please state the recorded outcome for this compound: CCC(CS(=O)(=O)O)[N+](=O)[O-] (stereo not given) inactive

Please state the recorded outcome for this compound: CC1(C)CCC[C@@]2(C)C1CC[C@@]1(CO)O[C@H](C3=CC(=O)OC3O)C[C@H]12 (stereo not given in full) inactive

Please state the recorded outcome for this compound: CC(C)C(NC(=O)C(C(C)C)N(C)C)C(=O)N(C)C(C(=O)N1CCCC1C(=O)N1CCCC1C(=O)NCc1ccccc1)C(C)C (stereo not given) (ξNMe2Val-V[NMeV]PP-NHBn; configuration not given here) active

Please state the recorded outcome for this compound: [O-][S+]1SC(=S)C2C=CC=CC21 (stereo not given) inactive

Please state the recorded outcome for this compound: CCOC(=O)Cc1nc2nn(Cc3ccccc3)cc2c(=O)[nH]1 inactive

Please state the recorded outcome for this compound: CC(=O)O[C@H]1C[C@H]2[C@@H](OC(C)=O)/C=C3\C[C@](C)(C(=O)[C@H](O)C(=C1C)C2(C)C)[C@@H](O)C[C@@H]3OC(=O)[C@H](O)[C@H](c1ccccc1)N(C)C inactive

Reference source: ChEMBL document CHEMBL1201862
